# System: JEG-3
# experimentSummary: Primary qHTS to identify gynecologic anti-cancer compounds using libraries of approved drugs and bioactive compounds (AID 1345084); further: on the % scale 0 is the no-effect control and ±100 the full control effect; nearly all actives have a fitted effect of over 55% in size
# conditionDetails: Gynecologic cancer cell panel viability, ATPlite luminescence, 48 h; series mostly up to 57.5 µM
# Source text: National Center for Advancing Translational Sciences [NCATS] Assay Overview: Chemotherapeutic drug responses vary from cancer to cancer and from patient to patient. […] ATPlite is a luminescence based assay reliant on the conversion of a luciferase substrate to light in the presence of ATP. As a cytotoxic compound will suppress growth and decrease the number of cells, the concentration of ATP will decrease, and less light signal will be detected in the well. […]
Inconclusive results are not listed. The source made the active and inactive calls. The call rests on the fitted dose curve; in most records, active means well fitted cell-killing curve with a large enough effect; inconclusive means small, poorly fitted or top-dose-only effect, or effect the other way; inactive means flat fitted curve, though single readings scatter.
measuredProperty: activity change, negative = cytotoxicity

Consider the following illustrative entries.
- molecule: "CC1(C)CC[C@]2(C(=O)O[C@@H]3O[C@H](CO[C@@H]4O[C@H](CO)[C@@H](O)[C@H](O)[C@H]4O)[C@@H](O)[C@H](O[C@@H]4O[C@H](CO)[C@@H](O)[C@H](O)[C@H]4O)[C@H]3O)CC[C@]3(C)C(=CCC4[C@@]5(C)CC[C@H](O[C@@H]6OC[C@@H](O)[C@H](O)[C@H]6O)[C@@](C)(C(=O)O)C5CC[C@]43C)[C@@H]2C1 (stereo partly specified)"
  measuredProperty: "activity change, negative = cytotoxicity"
  dataValue: "2.05% [at 11.6 µM] (inactive)"
- molecule: "C=C1C(O)CC2C(C(=O)O)=COC(O[C@@H]3O[C@H](COC(=O)c4ccc(O)cc4)[C@@H](O)[C@H](O)[C@H]3O)C12 (stereo partly specified)"
  measuredProperty: "activity change, negative = cytotoxicity"
  dataValue: "inactive"
- molecule: "Cc1nnc(-c2ccc3occ(-c4ccc(S(C)=O)cc4)c3c2)o1 (stereo unspecified)"
  measuredProperty: "activity change, negative = cytotoxicity"
  dataValue: "inactive"
- molecule: "C=C(C(=O)O)[C@@H]1CC[C@@]2(C)CC[C@@H](O)C(=C)C2C1 (stereo partly specified)"
  measuredProperty: "activity change, negative = cytotoxicity"
  dataValue: "inactive"

Query :: Requested field: activity change, negative = cytotoxicity. Item: CC1(CO)CCCC2(C)C3COC(=O)C3=CC(O)C12 (stereo unspecified)
Result :: inactive

Query :: Would you mind doing `C[C@@]12CC3(S(=O)(=O)O)OC(O1)[C@]1(COC(=O)c4ccccc4)[C@H]3C[C@]21O[C@@H]1O[C@H](CO)[C@@H](O)[C@H](O)[C@H]1O` as well?
Result :: inactive

Ref: PubChem BioAssay (NCATS)
